Attribution: patent US20210292393A1

Biological target: SARS-CoV spike protein (full-length trimeric, on beads) (SARS-CoV, UniProt P59594 14-1190)
Measured bead binding signal, fold over isotype control, listed per entry.
Your answer should be a plain number; it is taken to be in fold over isotype.

Please give the documented bead binding signal, fold over isotype control of antibody 496 (antibody, V domains shown) VH: QVQLVQSGAEVKKPGASVKVSCKASGYTFTDYYIHWVRQAPGQGLEWMGWINPNSGGTNYAQKFQGRLTMTRDTSISTAYMELSRLRSDDTAVYYCARVYSMFREFIINPYYYYYGLDVWGQGTTVTVSS VL: QSALTQPASVSGSPRQSITISCTGTSSDVGSYNLVSWYQQHPGKAPKLMIYEGSKRPSGVSNRFSGSKSGNTASLAISGLQAEDEANYYCCSYAGSSTLVFGGGTKLTVL
1.15

Please give the documented bead binding signal, fold over isotype control of antibody 533 (antibody, V domains shown) VH: GVQLVESGGVVVQPGGSLRLSCAASGFSFDDYTMHWVRQAPGKGLEWVSLVSWDGGTTYYTDSVKGRFTISRDNSKNSLYLQMNSLRTEDTALYFCAKDSGRIVPAATFDYWGQGTLVTVSS VL: DIQMTQSSSSLSASVGDRVTITCRASQDISNYLAWFQQKPGKAPKSLIYAASSLQSGVPSKFSGSGSGTDFTLTISSLQPEDFATYYCQQYYTYPLTFGGGTKVEIK
1.23

More entries:
Please give the documented bead binding signal, fold over isotype control of antibody 505 (antibody, V domains shown) VH: EVQLVESGGGLVKPGGSLRLSCAASGFTFSSYSMNWVRQAPGKGLEWVSSISSSSSYIYYADSVKGRITISRDNAKNSLYLQMNSLRAEDTAVYYCAREYPNFRAEWLLSPYGMDVWGQGTTVTVSS VL: QSALTQPASVSGSPGQSITISCTGTSSDVGSYNLVSWYQQHPGKAPKLMIYEVSKRPSGVSNRFSGSKSGNTASLTISGLQAEDEADYYCCSYAGSSTSVKVFGTGTKVTVL
1.04
